Tested on: MS2 coat protein
protocol: apparent KD of MS2 coat protein; designed switch direction (-1 OFF switch, 1 ON switch): 1; higher = weaker reporter binding
test-parameters: input ligand: microRNA oligo, concentration not stated
observable: apparent KD of MS2 coat protein (nM)
Numbers only, in nM.

1. GCUAGAAUCAAAGCCAACAUGAGGAUCACCCAUGUAUGUUGGUAGGAUAUCGUUUGCUUUGCAAACGAGAAGGACCAAACUAGC [SameState NG3 #1] (Eterna round: R96, puzzle: Same State NG 3) : 75.3
2. UAUCUCAUGUAAGGAUAUGCAGCCGUUUCGGCUGCAGAAGGUACUAUAAUACAUGAGGAUCACCCAUGUCUCUAUUAUUUAGUU [JL SSNG1 1.45] (Eterna round: R96, puzzle: Same State NG 1) : 45.7
3. GCUACCAUUGAAGCCAACAUGAGGAUCACCCAUGUAUGUUGGUAGGAUAUCGAUUGCUUUGCGAUCGAGAAGGGCUAAGGUAGC [JL SSNG3 1.28] (Eterna round: R96, puzzle: Same State NG 3) : 48
4. AACAUGUGGUGUUACAUGAGGAUCACCCAUGUGGCAAAAGCUGAGGAUAUCAUUAAACCCAUGAAUGAGAAGGUAGGAUCACAA [AK SSNG3-V2-20] (Eterna round: R96, puzzle: Same State NG 3) : 124

Just so you know, measured apparent KD of MS2 coat protein for AAAAAACAUGAGGAUCACCCAUGUAAAAAAAUGGGAGGAUAUACAAAAACAAAAAAAAAAGUAGAAGGCCUGAAAA [same state 9] (Eterna round: R96, puzzle: Same State 1) came out at 478

----------
System: K4 kissing-loop RNA reporter;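 also: bound reporter read as fluorescence of individual clusters on recovered sequencing chips by microscopy, with normalized cluster intensities fitted with a binding model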
protocol: apparent KD of K4 kissing-loop reporter; higher = weaker reporter binding
test-parameters: Eterna round: R107; input ligand: arginine 13.2 mM
observable: apparent KD of K4 kissing-loop reporter (nM)
Give bare numbers, in nM.

Would you mind giving apparent KD of K4 kissing-loop reporter for every sequence in the list below?
1. GGGUGGCAGGCGGCCGCCACUCUGAGCACCCACUGAGUGAUGUUCGUGGCGUAAGACUGUUCGUAGAGGACCGGGUUUGUUGUUC [Same State Tryptophan B GF 23]
2. AAGGUCACUGCUACAGUGAUGUUGUGGGAGCAGGAUAUGCUGAAAAGCAGAAGGGCUCGCUCCAGGUGACCGAAUGAAACAUUCA [whbob_SS_FMNA__2th176]
3. AGCAGUCAACUCGAAACCAUCGAAGAUGGUCGAGGACCGGUACGGCCGCCACUCGGAGUGAUGUUCCGAAGACUGCAAAAUAAAA [#SwitchBubble 14]
4. CCGGGCGGCCGAAGGAGCGGGCGGACCCGAGUGAUGUUCGGGUGGCCCGUGAGGGCCGGUGCCCAGGUAGGUCGCGGAUCCGCCC [#2 Same State - Arginine B Attempt #3 (HarryS)]
5. AAACAUAAGUCUGAUACCAGCCUGGGAGAAGUGAUGUUUCUCGGUGCAUAACGCCUAUAAGGCCCUUGGCAGCAGCAUGCGCUUC [theeternabot_sameState_KL_Theo_B_10]

Result block:
1: 143; 2: 718; 3: 299; 4: 120; 5: 485

----------
Test system: MS2 coat protein
protocol: apparent KD of MS2 coat protein; designed switch direction (-1 OFF switch, 1 ON switch): -1; higher = weaker reporter binding
test-parameters: input ligand: none
Record form. Attribute: apparent KD of MS2 coat protein. Fill in for each entry.
One number for each entry, in µM.

1. AACAUUCCAGAAAGGAAUGACAUGAGGAUCACCCAUGUAGGGAUCUAUGCUAAGUUGCUCGUCGCCGCUCCACAAAG [Eternabot (Original) Solution 5] (Eterna round: R97, puzzle: Sensor, turn-off variant 1) : 0.362
2. UUUAGUUCAGGAUAUGUAGAUUUUAACAUGAGGAUCACCCAUGUGGAUCCUGAAUUAACUACAGAAGGGAACAUUU [Mod of Brourd 3 - Jieux - Exclusion 5] (Eterna round: R97, puzzle: Exclusion 5) : 0.043

Give apparent KD of MS2 coat protein for all sequences that follow.
1. ACAUGAGGAUCACCCAUGUAAACAUAAUGGCUCAUGUAGAGUCAGGAUAUGCGUGGCGAACUCGCGCAGAAGGGACAAGACUGG [Deportation 23 - Jieux - Exclusion NG 3] (Eterna round: R96, puzzle: Exclusion NG 3)
2. GCACAGUGAGGAUAUACAUGAGGAUCACCCAUGUCCGCCGAUUAAGAGGUAUCAACGUGUAGAAGGUACCAGCG [Eternabot (Original) Solution 25] (Eterna round: R97, puzzle: Exclusion 3)

Result block:
1. 0.0264
2. 0.0185

All values here come from the supplement of paper PMC9170038.
